Documented MIC across a set of molecules
- Tested on: Staphylococcus aureus
- experimentalDetails: Antimicrobial activity against glycopeptide-intermediate Staphylococcus aureus NRS1 after 20 hrs by microdilution assay
- Format: functional
- experimentalSetup: NRS1, 20 h
Non-standard residues stand in square brackets, D forms with d. Residues, ends and D or L forms follow the SMILES beside them. Groups on a side chain read outwards from the residue. ξ: configuration not given here. ξGly(decyl) = CCCCCCCCCCC(N)C(=O)O
Numeric only. Scale: µM

Solved cases below.
molecule	MIC [µM]
CCCCCCCCCCC(NC(=O)C(CCCCCCCCCC)NC(=O)C(CCCCNC(=O)C(CCCCN)NC(C)=O)NC(=O)C(CCCCN)NC(C)=O)C(N)=O (stereo not given) (Ac-KK([Lys-Ac])[ξGly(decyl)][ξGly(decyl)]-NH2; configuration not given here)	7.5
CCCCCCCCCCC(NC(=O)C(CCCCCCCCCC)NC(=O)C(CCCCNC(=O)C(N)CCCCN)NC(=O)C(N)CCCCN)C(N)=O (stereo not given) (H-KK(Lys)[ξGly(decyl)][ξGly(decyl)]-NH2; configuration not given here)	0.1

Continue with the next molecule.
q: Entry under review: `CN[C@@H](CC(C)C)C(=O)N[C@H]1C(=O)N[C@@H](CC(N)=O)C(=O)N[C@H]2C(=O)N[C@H]3C(=O)N[C@H](C(=O)N[C@@H](C(=O)O)c4cc(O)cc(O)c4-c4cc3ccc4O)[C@H](O)c3ccc(c(Cl)c3)Oc3cc2cc(c3O[C@H]2O[C@@H](CO)[C@H](O)[C@@H](O)[C@@H]2O[C@@H]2C[C@@](C)(N)[C@@H](O)[C@@H](C)O2)Oc2ccc(cc2Cl)[C@H]1O` . Reported MIC?
a: 1

----------
- Test system: Staphylococcus aureus
- experimentalDetails: Antimicrobial activity against methicillin-susceptible Staphylococcus aureus ATCC 25923 after 20 hrs by microdilution assay
- Type: functional
- experimentalSetup: ATCC 25923, 20 h
Non-standard residues stand in square brackets, D forms with d. Residues, ends and D or L forms follow the SMILES beside them. Groups on a side chain read outwards from the residue. ξ: configuration not given here. ξGly(decyl) = CCCCCCCCCCC(N)C(=O)O
recordedEndpoint: MIC (µM)
Numeric only. Scale: µM

Solved cases below.
molecule	MIC [µM]
CCCCCCCCCCC(NC(=O)C(CCCCCCCCCC)NC(=O)C(CCCCNC(=O)C(CCCCN)NC(C)=O)NC(=O)C(CCCCN)NC(C)=O)C(N)=O (stereo not given) (Ac-KK([Lys-Ac])[ξGly(decyl)][ξGly(decyl)]-NH2; configuration not given here)	3.75
CN[C@@H](CC(C)C)C(=O)N[C@H]1C(=O)N[C@@H](CC(N)=O)C(=O)N[C@H]2C(=O)N[C@H]3C(=O)N[C@H](C(=O)N[C@@H](C(=O)O)c4cc(O)cc(O)c4-c4cc3ccc4O)[C@H](O)c3ccc(c(Cl)c3)Oc3cc2cc(c3O[C@H]2O[C@@H](CO)[C@H](O)[C@@H](O)[C@@H]2O[C@@H]2C[C@@](C)(N)[C@@H](O)[C@@H](C)O2)Oc2ccc(cc2Cl)[C@H]1O	0.7

q: Please provide the recorded MIC for CCCCCCCCCCC(NC(=O)C(CCCCCCCCCC)NC(=O)C(CCCCNC(=O)C(N)CCCCN)NC(=O)C(N)CCCCN)C(N)=O (stereo not given) (H-KK(Lys)[ξGly(decyl)][ξGly(decyl)]-NH2; configuration not given here) , tested on Staphylococcus aureus.
a: 0.06

Source: ChEMBL document CHEMBL3779783
